This collection of values is drawn from PubChem BioAssay (Tox21).

Assay: cAMP Responsive Elements (CRE) small molecule antagonists, cell-based qHTS assay (AID 1963591)
Conditions: CRE-bla HEK293T, beta-lactamase FRET ratio; series mostly up to 92.4 µM
Records with an inconclusive call do not appear. Activity calls are given as the source filed them. Calls follow the shape of the dose curve; as a rule, active = well fitted inhibition curve with a large enough effect in the signal ratio in the repeat runs (not every such curve was filed as active); inconclusive = weak or mixed curves, or effect the other way; inactive = flat fitted curve, though single readings scatter; the % refers to the signal ratio.
Tick one outcome: T (active), F (inactive)

The examples below pair each entry with its known result.
> print(dat)
                                    compound  classification
 1                  Cc1ccc(C)c(S(=O)(=O)O)c1               F
 2              C=C(C)C(=O)Nc1ccc(Cl)c(Cl)c1               F
 3  C#C[C@]1(O)CC[C@H]2[C@@H]3CCc4cc(OC)ccc4[C@H]3CC[C@@]21C               F
 4                          Cc1cc(C)c(C)cc1C               F
 5                     S=c1nc[nH]c2nc[nH]c12               F
 6              NC(=O)N1c2ccccc2C=Cc2ccccc21               F
 7  Nc1nc2ncc(CNc3ccc(C(=O)N[C@@H](CCC(=O)O)C(=O)O)cc3)nc2c(=O)[nH]1               F
 8                                 CCCC(=O)O               F
 9                   C[Si](C)(C)N[Si](C)(C)C               F
10                         CCOC(=O)CC(=O)OCC               F

**Query** Per the assay record, what outcome was assigned to `ClC/C=C/CCl` ?
**Result** F

**Query** Per the assay record, what outcome was assigned to C=CC(C)(CCC=C(C)C)OC(C)=O (configuration not stated) ?
**Result** F

**Query** Per the assay record, what outcome was assigned to `Cc1ccc(C)c(OCCCC(C)(C)C(=O)O)c1` ?
**Result** F

----------
Target: D(2) dopamine receptor (Homo sapiens)
Test: Dopamine D2 receptor (DRD2) small molecule agonists, cell-based qHTS assay (AID 1963594); also: nearly all actives have a fitted effect of over 35% in size
Details: HEK293-DRD2 cAMP HTRF, agonist mode, 30 min; series mostly up to 92.4 µM
Records with an inconclusive call do not appear. Calls of active or inactive are those of the source. Calls come from the whole dose curve.
recorded.metric: outcome

In the examples that follow, each entry is paired with its recorded outcome.
mol	outcome
C=CCCCCCCCCC(=O)O	inactive
CC(=O)c1ccc(S(=O)(=O)NC(=O)NC2CCCCC2)cc1	inactive
O=C1O[C@H](CO)[C@@H](O)[C@H](O)[C@H]1O	inactive
CC1=CC(C)(C)Nc2ccccc21	inactive
CCCCN(CCCC)CCCC	inactive
C/C=C/c1ccc(OC)cc1	inactive
Cn1c([N+](=O)[O-])cnc1COC(N)=O	inactive
CCCCCCC(C)(C)S	inactive
CCCNC(=O)NS(=O)(=O)c1ccc(Cl)cc1	inactive
CCCCNC(=O)NS(=O)(=O)c1ccc(N)cc1	inactive

**Query** Reported outcome for `CC1=C(C)S(=O)(=O)CCS1(=O)=O` : what is it?
**Result** inactive

**Query** Reported outcome for `ClC/C=C/CCl` : what is it?
**Result** inactive

**Query** Reported outcome for `c1cnc2c(c1)ccc1cccnc12` : what is it?
**Result** inactive

**Query** Reported outcome for `Cc1c(N(C)CS(=O)(=O)O)c(=O)n(-c2ccccc2)n1C` : what is it?
**Result** inactive

**Query** Reported outcome for `CC(=O)OC/C=C(\C)CCC=C(C)C` : what is it?
**Result** inactive

**Query** Reported outcome for `OC[C@@H](O)[C@@H](O)[C@H](O)[C@H](O)CO` : what is it?
**Result** inactive

**Query** Reported outcome for `CC(=O)Nc1ccccc1` : what is it?
**Result** inactive

**Query** Reported outcome for `C=C(C)C(N)=O` : what is it?
**Result** inactive

**Query** Reported outcome for `O=C(OCCOCCOC(=O)c1ccccc1)c1ccccc1` : what is it?
**Result** inactive

**Query** Reported outcome for `NNC(=O)c1ccncc1` : what is it?
**Result** inactive

**Query** Reported outcome for `CC(=O)OCC(COC(C)=O)OC(C)=O` : what is it?
**Result** inactive

**Query** Reported outcome for `COc1ccc(C(=O)c2ccccc2O)c(O)c1` : what is it?
**Result** inactive

**Query** Reported outcome for `CC(=O)OC[C@H]1O[C@@](COC(C)=O)(O[C@H]2O[C@H](COC(C)=O)[C@@H](OC(C)=O)[C@H](OC(C)=O)[C@H]2OC(C)=O)[C@@H](OC(C)=O)[C@@H]1OC(C)=O` : what is it?
**Result** inactive

**Query** Reported outcome for `Cc1ccc(C)c(C)c1` : what is it?
**Result** inactive

**Query** Reported outcome for `C[C@]12CCC(=O)C=C1CC[C@@H]1[C@@H]2C(=O)C[C@@]2(C)[C@H]1CC[C@]2(O)C(=O)CO` : what is it?
**Result** inactive

**Query** Reported outcome for `CCCCCCCCCCCC[N+](C)(C)Cc1ccccc1` : what is it?
**Result** inactive

**Query** Reported outcome for `N=C(N)c1ccc(OCCCCCOc2ccc(C(=N)N)cc2)cc1` : what is it?
**Result** inactive
